Data provenance: paper PMC9264115

- ASSAY: Cytotoxic evaluation, MTT assay
- Format: cell-based
- MEASUREMENT_CONTEXT: HepG2 cells, human HepG2 cell line, three independent experiments
Documented CC50 at 72 h across a set of compounds
Number only, in µM; omit the unit.

The following compounds have reported results that may help.
C#Cc1cc2nc(NC(C)(C)C)[nH]c(=O)c2s1 [Compound 2f]
4.7
CC(C)(C)Nc1nc2cc(-c3ccc(S(C)(=N)=O)cc3)sc2c(=O)[nH]1 (stereo not drawn) [Compound 4s]
63.3
CC(C)Nc1nc2cc(Br)sc2c(=O)[nH]1 [Compound 3]
89.1

Now for the compound whose CC50 at 72 h we want.
INPUT: Fill blank: measured CC50 at 72 h of the compound Cc1ccc(Nc2cc3nc(NC(C)(C)C)[nH]c(=O)c3s2)cc1 [Compound 1a] is ____.
OUTPUT: 21.7

----------
Documented melting point across a set of compounds

Cc1ccc(C#Cc2cc3nc(NC(C)(C)C)[nH]c(=O)c3s2)cc1 [Compound 2b]
235 to 237 °C

INPUT: Fill blank: measured melting point of the compound CC(C)(C)Nc1nc2cc(-c3ccc(N4CCOCC4)cc3)sc2c(=O)[nH]1 [Compound 4g] is ____.
OUTPUT: > 300 °C

INPUT: Fill blank: measured melting point of the compound CC(C)Nc1nc2cc(C#Cc3ccccc3)sc2c(=O)[nH]1 [Compound 2h] is ____.
OUTPUT: 276 to 278 °C

----------
- Tested on: K1 culture-adapted P. falciparum strain
- ASSAY: Antiplasmodial evaluation, SYBR Green I fluorescence-based drug susceptibility test
- Type: cell-based
- MEASUREMENT_CONTEXT: Plasmodium falciparum; multi-resistant K1 strain of P. falciparum, 72 h incubation, three independent experiments; read-out: EC50 PfK1
METRIC: EC50
Kindly report the value followed by its unit.

CC(C)(C)Nc1nc2cc(Br)sc2c(=O)[nH]1
43.2 µM
CC(C)(C)Nc1nc2cc(-c3ccc(N)cc3)sc2c(=O)[nH]1
3.5 µM
CC(C)(C)Nc1nc2cc(C#CC3CC3)sc2c(=O)[nH]1
1.9 µM
CC(C)(C)Nc1nc2cc(-c3ccc(S(C)(=O)=O)cc3)sc2c(=O)[nH]1
3 µM

Now for the molecule whose EC50 we want.
INPUT: Fill blank: measured EC50 of the molecule "CC(C)(C)Nc1nc2cc(-c3ccc(S(=O)(=O)N4CCOCC4)cc3)sc2c(=O)[nH]1" is ____.
OUTPUT: 5.1 µM

----------
METRIC: melting point

CC(C)(C)Nc1nc2cc(-c3ccc(S(C)(=N)=O)cc3)sc2c(=O)[nH]1 (stereo not shown) [Compound 4s]
251 to 253 °C
CC(C)(C)Nc1nc2cc(-c3ccc(F)c(Cl)c3)sc2c(=O)[nH]1 [Compound 4e]
259 to 261 °C
CC(C)(C)Nc1nc2cc(-c3ccc([N+](=O)[O-])cc3)sc2c(=O)[nH]1 [Compound 4b]
> 300 °C
CC(C)(C)Nc1nc2cc(N3CCOCC3)sc2c(=O)[nH]1 [Compound 1f]
264 to 266 °C
CC(C)(C)Nc1nc2cc(-c3ccc(S(N)(=O)=O)cc3)sc2c(=O)[nH]1 [Compound 4l]
> 300 °C
COC(=O)c1ccc(-c2cc3nc(NC(C)(C)C)[nH]c(=O)c3s2)cc1 [Compound 4a]
> 300 °C

INPUT: Fill blank: measured melting point of the molecule CC(C)Nc1nc2cc(-c3ccc(F)c(Cl)c3)sc2c(=O)[nH]1 [Compound 4f] is ____.
OUTPUT: > 300 °C

INPUT: Fill blank: measured melting point of the molecule CC(C)(C)Nc1nc2cc(-c3ccc(N)cc3)sc2c(=O)[nH]1 [Compound 4p] is ____.
OUTPUT: 259 to 261 °C

INPUT: Fill blank: measured melting point of the molecule CC(=O)Nc1ccc(-c2cc3nc(NC(C)(C)C)[nH]c(=O)c3s2)cc1 [Compound 4r] is ____.
OUTPUT: > 300 °C

INPUT: Fill blank: measured melting point of the molecule COc1ccc(Nc2cc3nc(NC(C)(C)C)[nH]c(=O)c3s2)cc1 [Compound 1d] is ____.
OUTPUT: 205 to 207 °C
